Hello, the source for this data is patent US20220073604A1, in case you need it.

- study-system: human IL-6 (human, UniProt P05231 30-212)
- measurement-description: cell-based or functional assay
readout-kind: IC50, growth of IL-6-dependent 7TD1 cells with 75 pg/ml human IL-6

INPUT: Item 133A9 (antibody, V domains shown) VH: EVQLQESGPGLVKPSQTLSLTCTVSGGSITTRYYAWSWIRQPPGKGLEWIGVIDYEGDTYYSPSLKSRVTISVDTSKNQFSLKLSSVTAEDTAVYYCARDPDVVTGFHYDYWGQGTMVTVSS VL: QSALTQPPLVSGSPGQTVTISCAGANNDIGTYAYVSWYQQPPGTAPKLMIYKVTTRASGIPDRFSGSISGNTASLTISGLQSEDEADYYCASYRNFNNAVFGTGTKLTVL has what recorded IC50, growth of IL-6-dependent 7TD1 cells with 75 pg/ml human IL-6?
OUTPUT: < 1 pM

INPUT: Also, 133E5 (antibody, V domains shown) VH: QVQLQESGPGLVKPSQTLSLTCTVSGGSITSRYYAWSWIRQPPGKGLEWIGVIDYDGDTYYSPSLKSRVTISWDTSKNQFSLKLSSVTPEDTAVYYCARDPDVVTGFHYDYWGQGTQVTVSS VL: QSALTQPPSVSGSPGQTVTISCAGANNDIGTYAYVSWYQQLPGTAPKLMIYKVTTRASGIPDRFSGSKSGNTASLTISGLQAEDEADYYCASYRNFNNAVFGRGTKLTVL please.
OUTPUT: < 1 pM

INPUT: Repeat with 68F2 antibody (antibody, V domains shown) VH: EVQLQESGPGLVKPSQTLSLTCTVSGGSITTRYYAWSWIRQPPGKGLEWMGVIDYDGDTYYSPSLKSRTSISWDTSKNQFSLQLSSVTPEDTAVYYCARDPDVVTGFHYDYWGQGTQVTVSS VL: QSALTQPPLVSGTPGQTVTISCAGANNDIGTYAYVSWYQQLPGTAPKLLIYKVTTRASGIPSRFSGSKSGNTASLTISGLQSEDEADYYCASYRNFNNAVFGRGTHLTVLG
OUTPUT: < 1 pM
